Tested on: NOMO1
experiment_description: cell viability relative to DMSO control; higher = less cytotoxic
condition_label: RPMI 5 mM glucose + 10% dialyzed FBS; 48 h; 0.0632 µM
Property: cell viability; scope: individual compounds
// return numeric value only (unit: %, not printed)

Answered cases to consult:
{"compound": "COc1nccc(-c2c(-c3ccc(F)cc3)ncn2C2CCC(O)CC2)n1 (stereo unspecified)", "unit_name": "%", "cell viability": 116}
{"compound": "COc1cc(Nc2ncc(F)c(Nc3ccc4c(n3)N(COP(=O)(O)O)C(=O)C(C)(C)O4)n2)cc(OC)c1OC", "unit_name": "%", "cell viability": 89.6}
{"compound": "C=C[C@H]1CN2CCC1C[C@@H]2[C@@H](O)c1ccnc2ccccc12 (stereo partly specified)", "unit_name": "%", "cell viability": 92.6}
{"compound": "CC1=CC=C2\\N=C/3N(CC[C@@]3(O)C(=O)C2=C1)C4=CC=CC=C4", "unit_name": "%", "cell viability": 101}
{"compound": "O=C(C[C@@H]1C/C=C\\CCC(=O)O[C@H](c2ccccc2)CNC1=O)NCc1ccc(Cl)cc1", "unit_name": "%", "cell viability": 113}
{"compound": "O=C(O)CCNc1cc(N2CCc3ccccc3CC2)nc(-c2ccccn2)n1", "unit_name": "%", "cell viability": 127}

So what does the record say about cell viability for `Cc1cc(-c2nnc3n2CCCCC3)c(C)n1-c1ccccc1` ? 124

So what does the record say about cell viability for O=P1(N(CCCl)CCCl)NCCCO1 (stereo unspecified) ? 119

So what does the record say about cell viability for `CN1CCN(Cc2ccc(NC(=O)Nc3ccc(Oc4cc(NC(=O)C5CC5)ncn4)cc3)cc2C(F)(F)F)CC1` ? 146

So what does the record say about cell viability for `CCCCOc1ccc(CC(=O)NO)cc1` ? 109

So what does the record say about cell viability for `C/C(=C\c1csc(C)n1)[C@@H]1C[C@@H]2O[C@]2(C)CCC[C@H](C)[C@H](O)[C@@H](C)C(=O)C(C)(C)[C@@H](O)CC(=O)O1` ? 23.9

So what does the record say about cell viability for `Cn1cc(-c2cnn3c(N)c(Br)c([C@@H]4CCCNC4)nc23)cn1` ? 95.3

So what does the record say about cell viability for `NCCCCCC(=O)O` ? 97.3

So what does the record say about cell viability for `CCOC(CN1C(=O)[C@](CC(=O)Nc2ccc(C)cc2)(NC(=O)Nc2ccc(C)cc2)c2ccccc21)OCC` ? 114

So what does the record say about cell viability for CC(Cc1ccc(O)c(O)c1)(NN)C(=O)O (stereo unspecified) ? 123

Source of measurements: the supplement of paper PMC11451515
